# TARGET_SYSTEM: T1, DGI-2 polypeptide (UniProt Q15004 1-111, limits assumed)
# T1 construct: Soluble recombinant protein coated at 500 ng/well; vector tag of pIVEX2.3-MCS not described for this construct; also called KIAA0101
# T1 sequence (looked up): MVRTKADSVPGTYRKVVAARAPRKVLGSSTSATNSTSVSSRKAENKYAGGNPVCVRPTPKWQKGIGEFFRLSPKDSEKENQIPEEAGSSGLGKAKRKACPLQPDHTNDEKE
# TEST_SUMMARY: phage ELISA
Property: DGI-2/LDH; scope: individual binders
Record the value in ratio, omitting the unit from your answer.

GRWDGWEVCGIWGADDCASGAAAGAPVPYPDPLEPRP [DGI-2-20R-4-H1]    7.8
DGI-2-40F-3-C424 (peptide) peptide: TVKFQGVVQERSRIAGFRYCGDHAVSWGLAGCPALRDKLQAAAGAPVPYPDPLEPRP    5.2
GAIRLSGAAWTASRTGGRASAAAGAPVPYPDPLEPRP [DGI-2-20F-PP-E7]    1.8

(Q) Item DGI-2-40F-4-E62 (peptide) peptide: TCWHRGLNVVRYSVNFGVRDARLTTQGMAWFPPGCGQGCVAAAGAPVPYPDPLEPRP has what recorded DGI-2/LDH?
(A) 4.5

(Q) Another binder to check: RERWGTAWNLWTEGVVDVRPAAAGAPVPYPDPLEPRP [DGI-2-20F-3-B5]
(A) 6.6

(Q) Same question, FGRDGDGIQRRQGGFSWVGDRAAAGAPVPYPDPLEPRP [DGI-2-20F-PP-E2] this time
(A) 2.4

(Q) Next entry: SAFGCPLPRALGGGGARFYAAAAGAPVPYPDPLEPRP [DGI-2-20F-PP-E11]
(A) 2.2
